Percent Effect overview
# tested system: Protein translocase subunit SecA (Escherichia coli (strain K12)) (UniProt P10408)
# Sequence (P10408 whole entry): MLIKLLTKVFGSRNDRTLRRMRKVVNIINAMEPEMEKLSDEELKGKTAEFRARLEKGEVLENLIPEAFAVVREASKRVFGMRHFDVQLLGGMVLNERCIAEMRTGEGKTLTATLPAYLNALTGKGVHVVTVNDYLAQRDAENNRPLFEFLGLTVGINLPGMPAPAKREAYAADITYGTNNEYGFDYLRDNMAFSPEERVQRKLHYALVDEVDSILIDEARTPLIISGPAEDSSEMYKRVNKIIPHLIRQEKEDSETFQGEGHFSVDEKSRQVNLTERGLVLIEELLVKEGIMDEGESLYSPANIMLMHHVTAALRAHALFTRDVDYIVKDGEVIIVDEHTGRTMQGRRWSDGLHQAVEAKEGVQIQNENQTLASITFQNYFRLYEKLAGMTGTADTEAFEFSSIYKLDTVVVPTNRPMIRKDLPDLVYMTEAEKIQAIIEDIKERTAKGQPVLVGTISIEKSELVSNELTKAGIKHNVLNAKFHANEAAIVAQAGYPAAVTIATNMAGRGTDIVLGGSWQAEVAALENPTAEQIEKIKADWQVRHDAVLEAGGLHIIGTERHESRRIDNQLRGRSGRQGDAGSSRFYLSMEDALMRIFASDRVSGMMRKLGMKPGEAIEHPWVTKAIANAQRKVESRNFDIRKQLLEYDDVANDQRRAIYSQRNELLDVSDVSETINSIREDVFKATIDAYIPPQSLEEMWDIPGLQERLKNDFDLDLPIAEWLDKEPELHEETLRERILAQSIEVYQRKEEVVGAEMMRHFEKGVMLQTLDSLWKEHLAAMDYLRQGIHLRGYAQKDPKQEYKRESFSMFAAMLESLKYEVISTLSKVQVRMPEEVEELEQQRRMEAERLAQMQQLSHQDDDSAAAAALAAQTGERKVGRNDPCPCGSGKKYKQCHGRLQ
# run description: Assay to Identify E. coli SecA ATPase Inhibitors
# Type: functional
# Design: scale not given: direction of the effect not stated beside the values
# experimental setup: 30 µM
Results with a measured potency or affinity are listed apart.
measurement label: Percent Effect (%)

1. Clc1snnc1CN1CCOC(CNc2cccnn2)C1 (centres undefined) = 0.0334
2. CCOCC1CN(Cc2cnn(C)c2)Cc2ncn(CC3CC3)c21 (centres undefined) = -6.63
3. O=C1CC(c2cccc(O)c2)c2c(c(C(=O)O)cn2-c2ccccc2)N1 (centres undefined) = -3.46
4. NC(=O)C1CCN(C(=O)c2cccc(CN3CCOCC3)c2)CC1 = -0.727
5. Cc1cc(CN(C)C(=O)NCC(C)N2CCc3ccccc32)no1 (centres undefined) = -2.85
6. O=C(CCN1CCOC(Cn2cccn2)C1)NC1CCCC1 (centres undefined) = -6.8
7. O=C(NCCCN1CCOCC1)c1ccn(-c2ccc3ccccn23)n1 = -0.779
8. CN1CCOC(CNCc2coc(-c3cccs3)n2)C1 (centres undefined) = -2.66
9. CCc1nc(CC(=O)Nc2cnn(CC3CCCO3)c2)cs1 (centres undefined) = -2.62
10. O=C(NCCNS(=O)(=O)c1ccc2c(c1)CCCC2)c1ccoc1 = -4.38
11. CN(C)C(CNC(=O)c1cccc(-n2cnnn2)c1)c1ccccc1Cl (centres undefined) = -1.38
12. CCNC(c1ccc(OC)cc1)c1cccnc1 (centres undefined) = -5.06
13. Cn1nc2c(cc1=O)CN(Cc1nnc(-c3ccc(F)cc3)o1)CC2 = -0.335
14. O=C(COC(=O)Cc1cccs1)NCc1cccc(NC(=O)C2CC2)c1 = -4.92
15. Cc1c[nH]c(CN(C)C(=O)C2CC(=O)N(Cc3ccncc3)C2)n1 (centres undefined) = -3.45
16. COc1cccc2c1OCC(NC(=O)NC1CCN(C3CC3)CC1)C2 (centres undefined) = -3.95
17. CC(CN1CCC2(CC1)c1nc[nH]c1CCN2S(C)(=O)=O)C(F)(F)F (centres undefined) = -5.83
18. Cc1nn(C)c(C)c1CNCc1ccnc(N2CCOCC2)c1 = -6.06
19. NC(=O)N1CCC2(CC1)CN(c1ccsc1)C(=O)CO2 = -5.13
20. Cn1cc(CNCCOc2ccc(F)c(F)c2)c(-c2cccnc2)n1 = -6.54
21. Cn1cc(CN2CCOCC3(C2)CN(c2ccccc2)C(=O)CO3)cn1 (centres undefined) = -5.71
22. CC(C)C(C(=O)N1CCCN(Cc2cnn(C)c2)CC1)n1cncn1 (centres undefined) = -1.34
23. COCCn1ccnc1C1CCCN(C(=O)CSCC2CC2)C1 (centres undefined) = -1.08
24. Cc1cnc(CN(C)C2CCN(CC(=O)Nc3nncs3)C2)o1 (centres undefined) = -0.539

###

# Organism: Homo sapiens
# run description: To identify inhibition of the IFN signalling (Jak-Stat) pathway via expression of an eGFP reporter gene under the control of an IFN-stimulated response element (ISRE) containing MxA promoter.
# Format: functional
# Design: scale not given: direction of the effect not stated beside the values
# experimental setup: 30 µM
measurement label: Percent Effect

1. Cc1nc(C)n(C2CCCN(C(=O)CCCn3ccnc3)C2)n1 (stereo unspecified) = 5.38%
2. CCn1cc(Br)c(C(=O)NCc2cnn(C)c2)n1 = 1.3%
3. Cc1cc(S(=O)(=O)N2CCc3ccc(F)cc32)cc(C(=O)O)c1C = -3.81%
4. CC(C)N1CCO[C@H]2CN(C(=O)c3ccc(N(C)C)cc3)C[C@H]21 = 4.68%
5. Cc1ccc(-c2cc(N)c(=O)n(CC(=O)NCC3CCCCC3)n2)s1 = 9.89%
6. O=C(CCCOc1ccccc1Cl)N1CCCC(n2cncn2)C1 (stereo unspecified) = -5.2%

###

Percent Effect overview
# tested system: Protein translocase subunit SecA (Escherichia coli (strain K12)) (UniProt P10408)
# run description: Assay to Identify E. coli SecA ATPase Inhibitors
# Assay type: functional
# Parameters: scale not given: direction of the effect not stated beside the values
# experimental setup: 30 µM
Results with a measured potency or affinity are listed apart.
measurement label: Percent Effect (%)

1) CC(C)CC(=O)N1C[C@@H]2CCN(c3ncccn3)C[C@@H]2C1 = -0.224
2) CC(C)n1c(=O)nc2n1C(=O)N(c1ccc(F)cc1)C2 = -3.14
3) O=C(Nc1nccs1)NC1CCN(Cc2ccccc2)C1 (centres undefined) = 0.43
4) CCN1CCN(c2ccc(CNC(=O)c3ccc(Cl)o3)cn2)CC1 = -0.96
5) O=C(c1ccccn1)N1CCn2cnc(COCC3CC3)c2C1 = -2.21
6) Cc1ccc(CNC(=O)NCc2cccnc2N(C)C)s1 = -4.97
7) Cc1cccc(-c2ccc(C(=O)NCCN(C)C3CC3)c(=O)[nH]2)c1 = -4.4
8) COc1cccc(C(=O)NCCCN2CCc3ccccc3C2)c1OC = -0.301
9) COCC(=O)N1CCC(c2nccnc2Oc2cccnc2C)CC1 = 0.43
10) Cc1cc(CN2CC[C@H]3C[C@H](C(=O)N4CCC(C)CC4)O[C@H]3C2)no1 = -3.17
11) Cc1cccc(-c2nc(CN3CCc4cnc(C)nc4C3)no2)c1 = -6.65
12) CCOc1ncccc1NC(=O)N1CCN(c2cccc(C)c2C)CC1 = -0.972
13) Cc1nsc(N2CCCN(c3nc(C4CC4)ns3)CC2)n1 = -2.5
14) Cc1cnc(CN(C)C2CCN(Cc3ccccc3C#N)C2)o1 (centres undefined) = 0.623
15) CCc1nc(CN(C(C)=O)C2CCN(Cc3cnc(C)cn3)C2)no1 (centres undefined) = -1.41
16) COc1ccc(OCC(=O)NC(C)c2ccc(F)cc2)c(C(=O)O)c1 (centres undefined) = -5.45
17) Cc1ccoc1C(=O)N1CCOCC2(CCN(c3ncccn3)C2)C1 (centres undefined) = -3.09
18) O=C(NCCn1ccnc1)N1CCN(c2nccs2)CC1 = -0.752
19) CCOC1COC2(CCN(Cc3ccc4c(c3)OCO4)CC2)C1 (centres undefined) = -2.81
20) CSc1ccc(-c2nc(CN3CCC(NC(C)=O)C3)c(C)o2)cc1 (centres undefined) = -6.31
21) COC(=O)c1ccc(N2CCN(CCC(=O)NC(N)=O)C(C)C2)cc1 (centres undefined) = -5.21
22) O=C1CC(c2ccccc2)c2c(n3ccsc3nc2=O)N1 (centres undefined) = -4.74
23) Cc1ncc(CNC(=O)c2nn(C)c3c2CS(=O)(=O)CC3)s1 = -3.9
24) CC(OCC1CC1)C(=O)N1CCCN(c2ncccc2C#N)CC1 (centres undefined) = -5.69

###

# tested system: Arginase-2, mitochondrial (Homo sapiens) (UniProt P78540)
# Sequence (P78540 whole entry): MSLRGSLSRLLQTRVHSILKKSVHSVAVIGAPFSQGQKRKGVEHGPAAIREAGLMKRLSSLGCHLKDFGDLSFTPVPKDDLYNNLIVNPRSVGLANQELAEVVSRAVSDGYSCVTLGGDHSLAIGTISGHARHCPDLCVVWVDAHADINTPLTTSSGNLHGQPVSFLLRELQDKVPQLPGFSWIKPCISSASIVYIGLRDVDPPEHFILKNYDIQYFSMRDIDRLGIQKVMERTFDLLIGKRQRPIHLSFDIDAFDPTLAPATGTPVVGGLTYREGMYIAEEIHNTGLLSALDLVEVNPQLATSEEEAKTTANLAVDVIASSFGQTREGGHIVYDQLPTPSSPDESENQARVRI
# run description: in vitro enzyme assay to detect the production of urea directly proportional to the activity of Arginase II; further: in the data most compounds retested in dose-response had high values
# Assay type: functional
# Set-up: scale not given: direction of the effect not stated beside the values
# experimental setup: 33.3 µM
Percent Effect overview
measurement label: Percent Effect (%)

1. O=C(c1ccc(NC2CC2)nc1)N1CCCC(n2cccn2)C1 (configuration not stated) = 2.3
2. Cc1[nH]ncc1C(=O)N1CCCC(n2cncn2)C1 (configuration not stated) = 3.23
3. COc1c(C)cnc(CN2CCC(C(=O)N(C)C)CC2)c1C = 1.42
4. O=C(C[C@@H]1COC[C@H]2CN(Cc3ccncc3)C[C@@H]12)N1CCOCC1 = -17.4
5. N#Cc1ccnc(N2CCN(C(=O)Cc3ccc4c(c3)CCO4)CC2)c1 = 0
6. COc1ccc(C2CC(=O)Nc3c2nc2n3CCCC2)cc1OC (configuration not stated) = 0.35
7. Cc1nn(C)c(N(C)C)c1CNCc1ccccc1CN(C)C = -6.24
8. CC(C)c1ncc2c(n1)CN(Cc1ccc(C(N)=O)cc1)CC2 = -2.68
9. CCn1cnnc1CNC(=O)N(C)Cc1ccc(F)c(F)c1 = -5.21
10. CC(C)C(=O)NCCCn1ncc2c(Cl)cccc21 = -8.28
11. c1cnnc(NCC2CN(CCN3CCCCC3)CCO2)c1 (configuration not stated) = -3.56
12. O=C(CCc1cccc(F)c1F)N1CCN(Cc2ccco2)CC1 = 0.476

###

# tested system: Sialic acid-binding Ig-like lectin 9 (Homo sapiens) (UniProt Q9Y336)
# Sequence (Q9Y336 whole entry): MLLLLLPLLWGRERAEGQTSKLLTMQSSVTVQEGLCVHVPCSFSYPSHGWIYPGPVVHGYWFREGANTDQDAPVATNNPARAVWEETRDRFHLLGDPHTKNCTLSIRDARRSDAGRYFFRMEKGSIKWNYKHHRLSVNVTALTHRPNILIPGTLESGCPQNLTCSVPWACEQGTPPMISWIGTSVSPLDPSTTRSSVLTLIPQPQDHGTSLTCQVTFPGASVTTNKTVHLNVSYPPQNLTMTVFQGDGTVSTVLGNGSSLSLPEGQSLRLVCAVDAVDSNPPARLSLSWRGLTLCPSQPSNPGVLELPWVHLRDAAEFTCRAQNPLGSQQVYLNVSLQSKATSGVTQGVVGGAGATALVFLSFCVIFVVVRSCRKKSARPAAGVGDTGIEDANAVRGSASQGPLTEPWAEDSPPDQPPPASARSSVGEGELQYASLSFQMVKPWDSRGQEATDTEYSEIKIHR
# run description: Hs-Siglec9 ALPHAscreen SOP 20170721
# Design: scale not given: direction of the effect not stated beside the values
# experimental setup: 10 µM
measurement label: Percent Effect (%)

1. CC(NC(=O)CCc1cccs1)c1nnc2n1CCC2 (stereo unspecified) = 7.21
2. CC1=N[C@@]2(CC[C@@H]3CN(CC(=O)N(C)C)C[C@@H]32)C(=O)N1CC(C)C = 1.63
3. O=C(Nc1nccs1)NC1CCN(Cc2ccccc2)C1 (stereo unspecified) = -11.5
4. CC(C)c1nc(C2CCCN(C(=O)c3ccc4nccn4c3)C2)no1 (stereo unspecified) = 12.4
5. Cc1cc(C)n(CC2CN(Cc3cscn3)CCO2)n1 (stereo unspecified) = -2.39
6. CCN1CCN(C2CCN(Cc3c(C)noc3C)CC2)C1=O = 13.7
